- Run conditions: 313.15 K; 101 kPa
Parameter: viscosity. Scope: all listed entries.
Note: unit mPa·s is implicit; provide only the numeric part.

Some entries whose results are on file:
Structure smiles: CCn1cc[n+](C)c1.N#C[S-]
viscosity (mPa·s): 14.3
--
Structure smiles: C=C(C)C(=O)OCC
viscosity (mPa·s): 0.4915
--
Structure smiles: CC(=O)[O-].CCCC[NH2+]CCO
viscosity (mPa·s): 297

# input for lookup
Prompt line: # input compound: CCS(=O)CC ; wanted: its viscosity
Response line: 1.74

----------
- Run conditions: 298.15 K; 101.33 kPa
± gives the uncertainty stated by the source.
Measure: viscosity

Past entries and their recorded results:
Structure smiles: Cc1ccccc1[N+](=O)[O-]
Measure: viscosity
Value measured: 2.089 ± 0.021 mPa·s

Structure smiles: CCCNCCC
Measure: viscosity
Value measured: 0.503 ± 0.005 mPa·s

Structure smiles: CCCCCN
Measure: viscosity
Value measured: 0.609 ± 0.004 mPa·s

Consider now this further molecule.
Prompt line: For CC(C)O , what is its reported viscosity?
Response line: 1.936 ± 0.013 mPa·s

Cited source for all entries: the CheMixHub viscosity set
